Target: Sialic acid-binding Ig-like lectin 9 (Homo sapiens) (UniProt Q9Y336)
Sequence (Q9Y336 whole entry): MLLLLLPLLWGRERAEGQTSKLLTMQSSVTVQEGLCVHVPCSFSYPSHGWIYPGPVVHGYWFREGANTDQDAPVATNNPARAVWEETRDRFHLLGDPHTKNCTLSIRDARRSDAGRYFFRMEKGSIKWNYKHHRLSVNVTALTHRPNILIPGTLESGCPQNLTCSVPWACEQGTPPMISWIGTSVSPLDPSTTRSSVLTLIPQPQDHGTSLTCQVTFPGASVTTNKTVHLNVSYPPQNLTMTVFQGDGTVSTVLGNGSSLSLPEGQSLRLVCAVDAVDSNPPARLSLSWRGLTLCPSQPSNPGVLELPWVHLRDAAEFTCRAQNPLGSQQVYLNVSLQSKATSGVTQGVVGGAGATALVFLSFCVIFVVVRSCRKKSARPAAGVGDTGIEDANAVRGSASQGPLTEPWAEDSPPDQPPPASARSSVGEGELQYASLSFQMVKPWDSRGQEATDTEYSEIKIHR
Assay: Hs-Siglec9 ALPHAscreen SOP 20170721
Parameters: scale not given: direction of the effect not stated beside the values
Conditions: 10 µM
The entries below come with measured Percent Effect values attached.
Mention the unit after the number when you answer.

Example cases with answers are listed next.
| Molecule | Percent Effect |
| --- | --- |
| CC1CCN(CCNC(=O)c2ccccc2N2CCOCC2)CC1 | 1.48% |
| COc1c(CNCc2ccc(N(C)C)nc2)c(C(C)C)nn1C | 6.83% |
| Cc1cc(C)n(CC2CN(Cc3nnsc3Cl)CCO2)n1 (stereo not given) | 2.78% |
| Cc1cccc(CN(C)Cc2nc3c(cnn3C)c(=O)[nH]2)c1 | -12.2% |

QUERY: // fetch Percent Effect given entry Cc1occc1C(=O)Nc1ccnc(OC2CCOC2)c1 (stereo not given)
RESULT: 6.54%

Ref: ChEMBL document CHEMBL3988442
